Each record here notes measured melting point.
Assay Metric: melting point (°C)

[
  {
    "Sample Smiles": "Cn1cc(C(=O)N[C@@H]2CCC[C@H](Nc3nc(-c4c[nH]c5c(F)cc(Cl)cc45)ncc3F)C2)cn1",
    "Unit Annotation": "°C",
    "Readout Relation": "=",
    "Test Result": 286.8
  },
  {
    "Sample Smiles": "Cn1ncc(N)c1C(=O)N[C@@H]1CCC[C@H](Nc2nc(-c3c[nH]c4c(F)cc(Cl)cc34)ncc2F)C1",
    "Unit Annotation": "°C",
    "Readout Relation": "=",
    "Test Result": 166.4
  },
  {
    "Sample Smiles": "O=C(N[C@@H]1CCC[C@H](Nc2nc(-c3c[nH]c4c(F)cc(Cl)cc34)ncc2F)C1)c1cnn[nH]1",
    "Unit Annotation": "°C",
    "Readout Relation": "=",
    "Test Result": 280.1
  },
  {
    "Sample Smiles": "O=C(O)c1n[nH]nc1C(=O)N[C@@H]1CCC[C@H](Nc2nc(-c3c[nH]c4c(F)cc(F)cc34)ncc2F)C1",
    "Unit Annotation": "°C",
    "Readout Relation": ">",
    "Test Result": 300
  },
  {
    "Sample Smiles": "Cc1cc(F)c2[nH]cc(-c3ncc(F)c(N[C@@H](CC(=O)O)C(C)(C)c4ccn(C)n4)n3)c2c1",
    "Unit Annotation": "°C",
    "Readout Relation": ">",
    "Test Result": 260
  }
]

###

We begin with a simple list: items and their reported melting point.
Assay Metric: melting point (°C)

[
  {
    "Compound": "Cc1cc(F)c2[nH]cc(-c3ncc(F)c(NC(CC(=O)O)C(C)(C)c4nccs4)n3)c2c1 (centres unmarked) [Compound 233]",
    "Assay Metric": "melting point",
    "Readout Relation": "=",
    "Test Result": 237.2
  },
  {
    "Compound": "NC(=O)c1cc(F)c(N[C@@H]2CCC[C@H](NC(=O)N3CCCC3)C2)nc1-c1c[nH]c2c(F)cc(F)cc12 (racemic) [Compound 23]",
    "Assay Metric": "melting point",
    "Readout Relation": "=",
    "Test Result": 249.2
  },
  {
    "Compound": "Cc1cc(C(=O)N[C@@H]2CCC[C@H](Nc3nc(-c4c[nH]c5c(F)cc(Cl)cc45)ncc3F)C2)on1 [Compound 44]",
    "Assay Metric": "melting point",
    "Readout Relation": "=",
    "Test Result": 255.1
  },
  {
    "Compound": "CC(C)(C)[C@H](CC(=O)O)Nc1nc(-c2c[nH]c3c(F)cc(F)cc23)c(C#N)cc1F [Compound 218]",
    "Assay Metric": "melting point",
    "Readout Relation": ">",
    "Test Result": 280
  },
  {
    "Compound": "Cc1cc(F)c2[nH]cc(-c3nc(N[C@@H]4CCC[C@@H](NC(=O)c5ncoc5C)C4)c(F)cc3C#N)c2c1 (racemic) [Compound 192]",
    "Assay Metric": "melting point",
    "Readout Relation": ">",
    "Test Result": 250
  },
  {
    "Compound": "CN(C)c1ccnc(C(=O)N[C@@H]2CCC[C@H](Nc3nc(-c4c[nH]c5c(F)cc(F)cc45)ncc3F)C2)c1 [Compound 121]",
    "Assay Metric": "melting point",
    "Readout Relation": "=",
    "Test Result": 282.8
  },
  {
    "Compound": "O=C(N[C@@H]1CCC[C@H](Nc2nc(-c3c[nH]c4c(F)cc(F)cc34)ncc2F)C1)c1cccc(O)n1 [Compound 104]",
    "Assay Metric": "melting point",
    "Readout Relation": "=",
    "Test Result": 226.6
  },
  {
    "Compound": "O=C(N[C@@H]1CCC[C@H](Nc2nc(-c3c[nH]c4c(F)cc(F)cc34)ncc2F)C1)c1c[nH]cn1 [Compound 142]",
    "Assay Metric": "melting point",
    "Readout Relation": "=",
    "Test Result": 219.9
  },
  {
    "Compound": "CC(C)(c1nccs1)C(CC(=O)O)Nc1nc(-c2c[nH]c3c(F)cc(F)cc23)c(C#N)cc1F (centres unmarked) [Compound 232]",
    "Assay Metric": "melting point",
    "Readout Relation": "=",
    "Test Result": 223.6
  },
  {
    "Compound": "Cc1cc(F)c2[nH]cc(-c3ncc(F)c(N[C@@H]4CCC[C@@H](NC(=O)c5nc(C)oc5C)C4)n3)c2c1 (racemic) [Compound 199]",
    "Assay Metric": "melting point",
    "Readout Relation": "=",
    "Test Result": 170
  },
  {
    "Compound": "O=C(N[C@@H]1CCC[C@H](Nc2nc(-c3c[nH]c4c(F)cc(F)cc34)ncc2F)C1)c1ncccc1O [Compound 102]",
    "Assay Metric": "melting point",
    "Readout Relation": "=",
    "Test Result": 176
  },
  {
    "Compound": "Cn1nc(C(=O)N[C@@H]2CCC[C@H](Nc3nc(-c4c[nH]c5c(F)cc(Cl)cc45)ncc3F)C2)cc1N [Compound 80]",
    "Assay Metric": "melting point",
    "Readout Relation": "=",
    "Test Result": 174.8
  },
  {
    "Compound": "O=C(N[C@@H]1CCC[C@H](Nc2nc(-c3c[nH]c4c(F)cc(F)cc34)ncc2F)C1)c1csc(C(=O)O)n1 [Compound 155]",
    "Assay Metric": "melting point",
    "Readout Relation": "=",
    "Test Result": 260.8
  },
  {
    "Compound": "O=C(N[C@@H]1CCC[C@H](Nc2nc(-c3c[nH]c4c(F)cc(F)cc34)ncc2F)C1)c1nnn[nH]1",
    "Assay Metric": "melting point",
    "Readout Relation": "=",
    "Test Result": 270.2
  }
]
